# maps each entry to its GI50
- Test system: SF-539 CNS
- PROTOCOL: NCI tumour cell line growth inhibition, 48 h
OBSERVATION TYPE: GI50

| COMPOUND | OBSERVATION TYPE | RESULT |
| --- | --- | --- |
| O=C1NC(=NCCc2cccc(Cl)c2)S/C1=C\c1ccc2ncccc2c1 | GI50 | > 25 µM |
| O=C(CSC1CCc2ccccc21)N/N=C/c1ccccc1O (stereo unspecified) | GI50 | 3.03 µM |
| OCCCNc1nccc(-c2c(-c3ccc(F)cc3)nn3cc(C(F)(F)F)ccc23)n1 | GI50 | > 25 µM |
| O=C1NC(=O)C(c2cccc([N+](=O)[O-])c2)=C1Nc1cc(Cl)c(O)c(Cl)c1 | GI50 | > 25 µM |
| N=C(N)c1ccc2nc(-c3cc(CC(=O)N[C@@H](CC(=O)O)C(=O)O)cc(-c4cc(S(N)(=O)=O)ccc4O)c3O)[nH]c2c1 | GI50 | > 100 µM |
| COc1cc2c3c(n(CCCOC(=O)C(F)(F)F)c(=O)c2cc1OC)-c1cc2c(cc1C3=O)OCO2 | GI50 | < 0.01 µM |
| O=C1NC(=O)/C(=C\c2ccccc2)C2=C1CCCC2 | GI50 | 11.6 µM |
| CC1=C(C(=O)Nc2ccc(Cl)c(Cl)c2)C(c2cccc(Oc3ccccc3)c2)NC(=O)N1 (stereo unspecified) | GI50 | 6.78 µM |
| CN(CCO)c1ccc(N2Cc3ccccc3OC3=C2C(=O)c2c(O)ccc(O)c2C3=O)cn1 | GI50 | 0.214 µM |
| COc1ccc(-c2ccc(-c3ccc(C(=N)N)s3)s2)cc1 | GI50 | 0.188 µM |
| O=S(=O)(Nc1ccc(F)cc1F)c1ccc(-c2cnc(C3CC3)o2)cc1 | GI50 | 0.674 µM |

---

# maps each entry to its TGI
- Tested on: MDA-N
- PROTOCOL: NCI tumour cell line growth inhibition, 48 h

| COMPOUND | SYSTEM TESTED | TGI |
| --- | --- | --- |
| COc1ccc(C2OC(N)=C(C#N)C3=C2CCCC3C)cc1OC (stereo unspecified) | MDA-N | > 100 µM |
| CNC(=S)N=Nc1c(O)n(CN2CCOCC2)c2ccc([N+](=O)[O-])cc12 | MDA-N | > 100 µM |
| O=C(/N=C/c1c(O)c2ccccc2oc1=O)Oc1ccccc1 | MDA-N | 86.7 µM |
| O=c1oc2ccccc2cc1-c1cn2ccccc2n1 | MDA-N | 19.8 µM |
| CCCCSC1=N/C(=C\c2ccco2)C(Cl)=N1 | MDA-N | > 100 µM |
| O=C(c1ccccc1)c1c(-c2ccccc2)n(-c2ccccc2)[nH]c(=O)c1=O | MDA-N | > 100 µM |

---

- Test system: OVCAR-5 ovarian
- PROTOCOL: NCI tumour cell line growth inhibition, 48 h

| COMPOUND | TGI |
| --- | --- |
| CC(C)C(=O)NS(=O)(=O)c1ccccc1 | > 100 µM |
| COc1cc(O)c(C(=O)/C=C/c2ccc(O)cc2)cc1Oc1ccc(/C=C/C(=O)c2ccc(O)cc2O)cc1 | 26.4 µM |
| CCN1C(=O)N(CC)C2C1NN=c1s/c(=C3\C(=O)N(CC(C)(C)C)c4ccccc43)c(=O)n12 (stereo not given) | 21.4 µM |
| NCCSc1nc(-c2ccccc2)c(-c2ccccc2)o1 | > 100 µM |
| Cc1c(O)c(OC2OC(CO)C(O)C(O)C2O)cc2c1CC[C@@H]1C2(C)C(=O)C[C@]2(C)[C@@H]([C@@](C)(O)C(=O)CCC(C)(C)O)[C@H](O)C[C@@]12C (stereo not given in full) | > 100 µM |
| COc1cc(N(CCC#N)CCC#N)ccc1/C(N=Nc1ccccc1C)=N\NC(=O)c1ccc(C)cc1 | > 100 µM |
| C#COc1cccc(Nc2c(C#N)cnc3ncc(NC(=O)CCl)cc23)c1 | > 62.5 µM |
| O=c1cc(CO)oc(C(O)c2ccccc2)c1O (stereo not given) | > 100 µM |
| COc1ccc(-c2ccc(-c3ccc(C(=N)N)s3)s2)cc1 | 0.43 µM |
| COC(=O)/C=C/c1c(CC=C(C)C)ncn1C | > 100 µM |
| CCCCSC1=N/C(=C\c2ccco2)C(Cl)=N1 | > 100 µM |
| COc1cc(N=Nc2cccc(S(=O)(=O)O)c2)ccc1N=Nc1ccc(/C=C/c2ccc(-n3on3-c3ccc(/C=C/c4ccc(N=Nc5ccc(N=Nc6cccc(S(=O)(=O)O)c6)cc5OC)cc4S(=O)(=O)O)c(S(=O)(=O)O)c3)cc2S(=O)(=O)O)c(S(=O)(=O)O)c1 | > 100 µM |
| COC1=CC2C(c3cc4ccccc4n3S(=O)(=O)c3ccccc3)CC1CN2C(=O)OCc1ccccc1 (stereo not given) | 45.2 µM |
| CC(C)CC(NC(=O)C(CI)Cc1ccccc1)C(=O)Nc1ccccc1 (stereo not given) | > 100 µM |
| c1ccc(NN=C(c2ccccn2)c2ccccn2)nc1 | > 100 µM |

---

# maps each entry to its GI50
- System: 786-0 renal
- PROTOCOL: NCI tumour cell line growth inhibition, 48 h

| TEST SMILES | SYSTEM TESTED | GI50 |
| --- | --- | --- |
| CC(=O)[O][Ga]([Br])[O]C(C)=O | 786-0 renal | > 100 µM |
| COc1ncc(-c2ccc3ncnc(Nc4cccc(Cl)c4)c3c2)cc1NS(=O)(=O)C1CC1 | 786-0 renal | 4.82 µM |
| O=S(=O)(Nc1ccc(F)cc1F)c1ccc(-c2cnc(C3CC3)o2)cc1 | 786-0 renal | 0.906 µM |
| COc1ccc(O)c(C(=O)c2ccc(C(=O)N[C@H]3CCCNC[C@@H]3NC(=O)c3ccncc3)cc2)c1F | 786-0 renal | 3.07 µM |
| CCN(Cc1ccccc1C)c1ccc(CO)c(Cl)c1 | 786-0 renal | 15 µM |

---

- Tested on: ACHN renal
- PROTOCOL: NCI tumour cell line growth inhibition, 48 h; in the data active means GI50 below about 0.43 µM; inactive means the rest
Outcome codes: yes (1) for active, no (0) for inactive

| COMPOUND | SYSTEM TESTED | LABEL CLASS |
| --- | --- | --- |
| COc1ccc(-c2ccc(-c3ccc(C(=N)N)s3)s2)cc1 | ACHN renal | yes (1) |
| COc1cc2c3c(n(CCCOC(=O)C(F)(F)F)c(=O)c2cc1OC)-c1cc2c(cc1C3=O)OCO2 | ACHN renal | yes (1) |
| CC(=O)Oc1ccccc1C(=O)Nc1ncc([N+](=O)[O-])s1 | ACHN renal | no (0) |
| CCN1C(=O)N(CC)C2C1NN=c1s/c(=C3\C(=O)N(CC(C)(C)C)c4ccccc43)c(=O)n12 (stereo not given) | ACHN renal | no (0) |
| C1=C\COCc2cc(ccc2OCCN2CCCC2)Nc2nccc(n2)-c2cccc(c2)COC/1 | ACHN renal | no (0) |
| COc1cc(OC)c(/C=C/c2c3ccccc3cc[n+]2C)c(OC)c1 | ACHN renal | no (0) |
| O=C1NC(=NCCc2cccc(Cl)c2)S/C1=C\c1ccc2ncccc2c1 | ACHN renal | no (0) |
| Cc1cc(C)c(/C=C2\C(=O)Nc3ccc(NC(=O)CCCCCCC(=O)NO)cc32)[nH]1 | ACHN renal | no (0) |
| COc1c[c]([Hg][O]C(C)=O)c(OC)c(NC(=O)CC(C)=O)[c]1[Hg][O]C(C)=O | ACHN renal | no (0) |
| COc1cc2c(c(OC)c1OC)-c1ncc3cc4c(cc3c1C2)OCO4 | ACHN renal | no (0) |

---

- Test system: SN12C renal
- PROTOCOL: NCI tumour cell line growth inhibition, 48 h
OBSERVATION TYPE: TGI

| COMPOUND | RESULT |
| --- | --- |
| N#Cc1c(N/N=C/c2ccc(Cl)cc2Cl)nc(N)nc1N1CCCC1 | > 100 µM |
| O=C1NC(=O)C(c2cccc([N+](=O)[O-])c2)=C1Nc1cc(Cl)c(O)c(Cl)c1 | > 25 µM |
| O=C1NC(=NCCc2cccc(Cl)c2)S/C1=C\c1ccc2ncccc2c1 | > 25 µM |
| COc1ccc2c(c1)nc1n2C(c2c(Cl)cccc2Cl)SC1 (centres undefined) | > 100 µM |
| CC(C)C(=O)Nc1nc2c(ncn2C2OC(CO)C(O)C2O)c(=O)[nH]1 (centres undefined) | > 100 µM |
| CCC(C)C1NC(=O)C(NC(=O)c2c3[nH]c4c(C(=O)NC5C(=O)NC(C(C)CC)C(=O)N6CCCC6C(=O)N(C)CC(=O)N(C)C(C(C)C)C(=O)OC5C)ccc(C)c4oc-3c(C)c(=O)c2=O)C(C)OC(=O)C(C(C)C)N(C)C(=O)CN(C)C(=O)C2CCCN2C1=O (centres undefined) | > 100 µM |
| O=P1(c2ccccc2)CCCCC1 | > 100 µM |
| Cn1c(=O)oc2cc(C(O)CN3CCN(Cc4ccccn4)CC3)c(Cl)cc21 (centres undefined) | > 100 µM |
| O=C(Nc1ccc(F)cc1)c1cc(S(=O)(=O)Nc2nc3ccccc3o2)c(SCc2ccccc2)cc1Cl | 31.6 µM |
